System: M14 melanoma
assay.summary: NCI tumour cell line growth inhibition, 48 h
Entries and their measured TGI follow.

Task: Suppose we examine the compound COc1cc(C(C)O)c[n+](CCC2CNc3ccccc32)c1 (stereo not given) ; what TGI value has been reported?
Result: > 100 µM

Task: Which TGI reading was recorded for the compound `CCOc1ccc2c(c1)c(CC(=O)O)cn2C` ?
Result: > 100 µM

Task: TGI lookup needed for `CCN1C(=NCCO)NS(=O)(=O)c2ccccc21` , thanks.
Result: > 100 µM

Task: Using the record for C=C(Cl)C(Cl)(CCl)CCC(Br)C(C)(C)Br (stereo not given) , report its TGI.
Result: > 10 µM

Task: What value of TGI has been reported for the following compound? `N/C1=C/C(=O)NC(=O)c2c(c3ccccc3oc2=O)C1`
Result: > 100 µM

###

Tested on: OVCAR-5 ovarian
assay.summary: NCI tumour cell line growth inhibition, 48 h
# TGI annotations

Consider the following illustrative entries.
C[C@@H]1CC(=O)C[C@@H]2CC[C@H]3[C@@H]4CC[C@H](OC(=O)c5cccc6cc7ccccc7nc56)[C@H]4CC[C@@H]3[C@H]21    34.9 µM
C=Cn1c([N+](=O)[O-])cnc1/C=C/c1ccc(C(=O)OCCN2CCOCC2)cc1    > 100 µM
CC(=O)/C=C/c1ccc(OCc2ccc(Cl)cc2)cc1    > 1000 µM
C/C(=N\Nc1nc2ccccc2s1)c1cc2ccccc2cn1    54.5 µM
COc1ccc(NC(=O)CC(=O)n2nc(C)c(N=Nc3ccccc3C(=O)O)c2C)cc1    > 100 µM

Task: Could you share what TGI was measured for CCCCOP(C)(=O)C(NC(=O)OCC)(C(F)(F)F)C(F)(F)F (stereo not given) , tested on OVCAR-5 ovarian?
Result: > 100 µM

Task: // fetch OVCAR-5 ovarian TGI for `Cc1cc(Cl)ccc1C(=O)c1ccc2ccccc2c1C(=O)O`
Result: > 100 µM

Task: I'm curious: which TGI was measured for `COc1cc(Cl)cc(-c2nn(-c3cccc(NC(=O)Nc4ccc(Cl)c(Cl)c4)c3)cc2-c2ccncc2)c1` tested on OVCAR-5 ovarian?
Result: > 100 µM

Task: GET /values?readout=TGI&system=OVCAR-5 ovarian&item= `COc1cnc2c(c1)C(=O)c1c-2n(CCCN2CCC(O)CC2)c(=O)c2cc(Cl)ccc12`
Result: 3.43 µM

Task: What value of TGI on OVCAR-5 ovarian does `Cc1c2c(n(CC(c3ccccc3)c3ccccc3)c1C)NN=C(C#N)S2(=O)=O` have?
Result: > 100 µM

Task: Request - read-out TGI | tested on OVCAR-5 ovarian | compound CC(=O)c1ccc(NC(=O)C(=O)C(C#N)CC(C)(C)C=O)cc1 (stereo not given)
Result: > 100 µM

###

Tested on: HCT-116 colon
assay.summary: NCI tumour cell line growth inhibition, 48 h
measurement.type: TGI

Here's what some known entries look like.
O=C1OC(=O)C2C3C=CC(C12)C1C2C=CC2C31 (centres undefined)    > 100 µM
O=[N+]([O-])c1cc([N+](=O)[O-])c(Cl)cc1Cl    2.17 µM
C/C(=N\NC(=S)N1CCCCCC1)c1cccc2cccnc12    > 67.1 µM
CC(=O)OC1[C@H](OC(C)=O)C2=C(C)[C@@H](OC(C)=O)C[C@@]2(C(C)(C)O)[C@@H](OC(C)=O)[C@H]2[C@@]1(C)[C@@H](OC(C)=O)CC(OC(C)=O)[C@]21CO1 (some centres undefined)    > 100 µM
CSc1nc(N)c2c(-c3ccccc3)c3c(nc2n1)CCCC3    > 100 µM

Task: Fill in: TGI of `CN(CCNC(=O)c1c[nH]c2c1Cc1ccccc1-2)CCNC(=O)c1c[nH]c2c1Cc1ccccc1-2` is ___
Result: > 100 µM

Task: Could you share which TGI value was measured for C=C=CC(NC(=O)c1ccccc1)(C(=O)O)C(F)(F)F (centres undefined) ?
Result: > 100 µM

Task: For the compound `Cn1cc(C2=C(Nc3ccccc3)C(=O)NC2=O)c2ccccc21` , what TGI is on record?
Result: > 25 µM

Task: Any idea what TGI was measured for `Cc1ccc2nc(-c3ccc(C(C)(C)C)cc3)oc(=O)c2c1` ?
Result: 51.9 µM

###

Measured TGI accompanies every entry in the list below.
Test system: SF-539 CNS
assay.summary: NCI tumour cell line growth inhibition, 48 h

Look over these answered cases.
C/C(=C/CC[C@]1(CO)CC[C@]2(C)[C@H](CC[C@@H]3[C@@]4(C)CC[C@H](OC5OC(CO)C(O)C(O)C5OC5OC(CO)C(O)C(O)C5O)C(C)(C)[C@@H]4CC[C@]32C)[C@H]1O)CO (stereo partly drawn)    > 100 µM
O=C(O)[C@H](CCC[C@H]1C(=O)O[C@H](c2ccccc2)[C@H](c2ccccc2)N1C(=O)OCc1ccccc1)N[C@@H](c1ccccc1)[C@H](O)c1ccccc1    34.4 µM
COCCOCCOCCOc1cccc2c1C(=O)c1cccc(OCCOCCOCCOC)c1C2=O    > 100 µM
OC1(c2ccc(Cl)cc2)c2ccccc2-c2nc3ccccc3n21 (stereo not drawn)    > 100 µM
O=C(CCCN1CCC(C(O)c2ccc(F)cc2)CC1)c1ccc(F)cc1 (stereo not drawn)    113 µM

Task: Consider the compound shown here: `NC(=S)N1N=C2c3ccccc3CC[C@H]2[C@@H]1c1ccc(Cl)cc1` What is its recorded TGI?
Result: > 100 µM

Task: Requested field: TGI. Item: Cc1cccc2c3c(sc12)C(c1ccc(F)cc1)C(C#N)=C(N)O3 (stereo not drawn)
Result: 0.679 µM

Task: For the compound shown here, `O=C(/C=C(\C(=O)c1cccs1)c1cccs1)c1ccc(C(=O)/C=C(\C(=O)c2cccs2)c2cccs2)cc1` , give the reported TGI.
Result: > 100 µM

Task: Endpoint output: TGI of CC1(C)OC2OC(C(COS(=O)(=O)C(F)(F)F)N=[N+]=[N-])C(OC(=O)c3ccccc3)C2O1 (stereo not drawn) . Value?
Result: > 100 µM

Task: So what's the measured TGI for this one? `CCOC(=O)Nc1cc2ccccc2c(N=Nc2ccccc2)c1O`
Result: 35.8 µM

###

Test system: T-47D breast
assay.summary: NCI tumour cell line growth inhibition, 48 h
measurement.type: TGI

Some compounds with recorded TGI:
O=C1/C(=C/c2ccc(O)cc2)COc2ccc(O)c(O)c21    > 100 µM
Cn1cc(C2=C(Nc3ccccc3)C(=O)NC2=O)c2ccccc21    > 25 µM
O=C(O)c1c(Br)c(Br)c(Br)c(Br)c1C1c2ccc(O)cc2Oc2cc(O)ccc21    > 100 µM

Task: Requested read-out: TGI. Entry: CC(=O)OC1=CC2(OC(C)=O)CC(C)(C)C1C1C(=O)C=CC(=O)C12 (stereo unspecified)
Result: > 100 µM

Task: Consider the compound shown here: `COc1cc2c(c(OC)c1OC)-c1ccc(N=NC(N)=S)c(=O)cc1[C@@H](NC(C)=O)CC2` What is its recorded TGI?
Result: > 100 µM

Task: Fill in the blank: the reported TGI of `COC(=O)c1cc(OC)c(OC)c(OC)c1-c1cc2c(cc1C=O)OCO2` is ____.
Result: > 10 µM

###

Test system: KM12 colon
assay.summary: NCI tumour cell line growth inhibition, 48 h; in the data active means GI50 below about 0.43 µM; inactive means the rest
Choose the fitting class; nothing outside active, inactive is accepted.

O=C1CC/C(=C/COc2cc(=O)oc3ccccc23)O1    inactive

Task: Lab log entry: `Cn1cc(C2=C(Nc3ccccc3)C(=O)NC2=O)c2ccccc21` — outcome as called in the assay?
Result: inactive

Task: For `COc1ccc(C(=O)c2sc3nc(-c4cccs4)ccc3c2N)cc1OC` , which call appears in the assay record?
Result: inactive

Task: Please state the recorded outcome for this compound: `Cc1[nH]c2cc(F)ccc2c1-c1nc2c3cccnc3c3ncccc3c2[nH]1`
Result: active

Task: What outcome does the record of this test show for `COc1cnc2c(c1)C(=O)c1c-2n(CCCN2CCC(O)CC2)c(=O)c2cc(Cl)ccc12` ?
Result: inactive

Task: Recorded test outcome, item CN(CCCCCl)P(=O)(OCc1ccc([N+](=O)[O-])o1)OCC1OC(n2cnc([N+](=O)[O-])c2N)C(O)C1O (configuration not stated)
Result: inactive

Task: In this assay, the call recorded for `NC1(Cc2ccc(Cl)cc2)CCN(c2ncnc3[nH]ccc23)CC1` was what?
Result: inactive

###

Documented TGI across a set of compounds
System: SR leukemia
assay.summary: NCI tumour cell line growth inhibition, 48 h
Provide only the numeric value, understood in nM.

CC(=O)NC(C=O)C(O[C@H](C)C(=O)NC(C)C(=O)NC(CCC(N)=O)C(=O)OCc1ccccc1)C(O)C(O)COC(=O)CCNc1c2ccccc2nc2cccc([N+](=O)[O-])c12 (stereo partly drawn)    2690

Task: Form field: reported TGI of `Cc1[nH]c2cc(F)ccc2c1-c1nc2c3cccnc3c3ncccc3c2[nH]1`
Result: 797
